molecular target: panel of 442 kinases (Homo sapiens, UniProt Q9H2K8); construct: purchased Ambit Biosciences (scanMAXX KINOMEscan); experiment: biochemical; assay type: binding; details: kinase TAOK3; 1 µM; read-out: TAOK3 (% of control at 1 µM)
Sequence (Q9H2K8 whole entry): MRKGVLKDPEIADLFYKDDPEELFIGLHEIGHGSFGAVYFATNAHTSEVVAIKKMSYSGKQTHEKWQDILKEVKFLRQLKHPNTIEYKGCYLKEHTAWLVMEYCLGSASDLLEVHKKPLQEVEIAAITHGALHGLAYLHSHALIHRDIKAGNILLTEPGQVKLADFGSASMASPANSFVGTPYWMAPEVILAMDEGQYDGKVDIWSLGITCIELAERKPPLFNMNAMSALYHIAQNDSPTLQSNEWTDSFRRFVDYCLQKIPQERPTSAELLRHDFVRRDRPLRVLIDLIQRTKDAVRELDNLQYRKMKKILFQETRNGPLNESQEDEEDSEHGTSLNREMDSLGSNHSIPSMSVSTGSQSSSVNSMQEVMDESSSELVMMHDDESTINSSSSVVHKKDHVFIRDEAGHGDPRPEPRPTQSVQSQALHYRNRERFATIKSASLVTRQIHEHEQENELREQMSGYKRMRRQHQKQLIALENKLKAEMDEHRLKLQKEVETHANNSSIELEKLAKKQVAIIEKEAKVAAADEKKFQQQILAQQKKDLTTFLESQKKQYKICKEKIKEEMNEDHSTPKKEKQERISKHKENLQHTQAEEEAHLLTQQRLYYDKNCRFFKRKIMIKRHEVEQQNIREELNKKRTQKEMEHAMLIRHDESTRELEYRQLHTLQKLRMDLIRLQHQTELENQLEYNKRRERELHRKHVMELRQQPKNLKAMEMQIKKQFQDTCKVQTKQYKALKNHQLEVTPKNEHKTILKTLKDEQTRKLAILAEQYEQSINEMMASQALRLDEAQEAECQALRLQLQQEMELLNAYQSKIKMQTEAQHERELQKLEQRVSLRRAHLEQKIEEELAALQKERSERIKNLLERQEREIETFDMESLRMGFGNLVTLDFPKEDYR
For each record, write down the corresponding remaining activity at 1 µM.
One number for each entry, in %.

>>> observed_value("COc1ncc(-c2ccc3nccc(-c4ccnnc4)c3c2)cc1NS(=O)(=O)c1ccc(F)cc1F")
100
>>> observed_value("Cn1c(=O)n(-c2ccc(C(C)(C)C#N)cc2)c2c3cc(-c4cnc5ccccc5c4)ccc3ncc21")
100

For each listed entry, give its remaining activity at 1 µM.
1. Nc1cc(C(F)(F)F)c(-c2cc(N3CCOCC3)nc(N3CCOCC3)n2)cn1
2. FC(F)c1nc2ccccc2n1-c1nc(N2CCOCC2)nc(N2CCOCC2)n1

(A)
89
92

###

For each record, write down the corresponding remaining activity at 1 µM.
molecular target: panel of 442 kinases (Homo sapiens); construct: purchased Ambit Biosciences (scanMAXX KINOMEscan); assay: biochemical; format: binding; conditions: kinase FLT4; 1 µM; read-out: % of control at 1 µM
Numbers only, in %.

Take a look at these entries with their results.
>>> observed_value("Cn1c(=O)n(-c2ccc(C(C)(C)C#N)cc2)c2c3cc(-c4cnc5ccccc5c4)ccc3ncc21")
100
>>> observed_value("COc1ncc(-c2ccc3nccc(-c4ccnnc4)c3c2)cc1NS(=O)(=O)c1ccc(F)cc1F")
100
>>> observed_value("FC(F)c1nc2ccccc2n1-c1nc(N2CCOCC2)nc(N2CCOCC2)n1")
96

// recorded remaining activity at 1 µM for Nc1cc(C(F)(F)F)c(-c2cc(N3CCOCC3)nc(N3CCOCC3)n2)cn1 : 99

###

target: panel of 442 kinases (Homo sapiens, UniProt P49841); construct: purchased Ambit Biosciences (scanMAXX KINOMEscan); experiment: biochemical; format: binding; conditions: kinase GSK3B; 1 µM; read-out: % of control at 1 µM
Sequence (P49841 whole entry): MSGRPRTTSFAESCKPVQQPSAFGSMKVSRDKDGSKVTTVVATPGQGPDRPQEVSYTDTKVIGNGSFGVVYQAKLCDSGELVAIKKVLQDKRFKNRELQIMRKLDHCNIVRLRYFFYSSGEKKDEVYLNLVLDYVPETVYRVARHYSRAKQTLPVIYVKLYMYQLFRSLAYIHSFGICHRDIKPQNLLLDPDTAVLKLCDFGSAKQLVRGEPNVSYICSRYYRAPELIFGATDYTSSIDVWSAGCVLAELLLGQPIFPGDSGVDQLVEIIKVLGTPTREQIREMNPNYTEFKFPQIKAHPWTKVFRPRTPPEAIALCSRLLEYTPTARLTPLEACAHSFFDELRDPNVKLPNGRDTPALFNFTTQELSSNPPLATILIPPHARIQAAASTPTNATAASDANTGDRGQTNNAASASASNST
For each record, write down the corresponding remaining activity at 1 µM.
Answers are plain numbers, in %.

Take a look at these entries with their results.
>>> observed_value("COc1ncc(-c2ccc3nccc(-c4ccnnc4)c3c2)cc1NS(=O)(=O)c1ccc(F)cc1F")
89
>>> observed_value("Nc1cc(C(F)(F)F)c(-c2cc(N3CCOCC3)nc(N3CCOCC3)n2)cn1")
86
>>> observed_value("FC(F)c1nc2ccccc2n1-c1nc(N2CCOCC2)nc(N2CCOCC2)n1")
91

Here is another molecule to look at.
The value of remaining activity at 1 µM recorded for Cn1c(=O)n(-c2ccc(C(C)(C)C#N)cc2)c2c3cc(-c4cnc5ccccc5c4)ccc3ncc21 when tested on panel of 442 kinases (Homo sapiens, UniProt P49841) reads 100

###

Biological target: panel of 442 kinases (Homo sapiens)
Construct: purchased Ambit Biosciences (scanMAXX KINOMEscan)
Sequence (Q16832 22-855): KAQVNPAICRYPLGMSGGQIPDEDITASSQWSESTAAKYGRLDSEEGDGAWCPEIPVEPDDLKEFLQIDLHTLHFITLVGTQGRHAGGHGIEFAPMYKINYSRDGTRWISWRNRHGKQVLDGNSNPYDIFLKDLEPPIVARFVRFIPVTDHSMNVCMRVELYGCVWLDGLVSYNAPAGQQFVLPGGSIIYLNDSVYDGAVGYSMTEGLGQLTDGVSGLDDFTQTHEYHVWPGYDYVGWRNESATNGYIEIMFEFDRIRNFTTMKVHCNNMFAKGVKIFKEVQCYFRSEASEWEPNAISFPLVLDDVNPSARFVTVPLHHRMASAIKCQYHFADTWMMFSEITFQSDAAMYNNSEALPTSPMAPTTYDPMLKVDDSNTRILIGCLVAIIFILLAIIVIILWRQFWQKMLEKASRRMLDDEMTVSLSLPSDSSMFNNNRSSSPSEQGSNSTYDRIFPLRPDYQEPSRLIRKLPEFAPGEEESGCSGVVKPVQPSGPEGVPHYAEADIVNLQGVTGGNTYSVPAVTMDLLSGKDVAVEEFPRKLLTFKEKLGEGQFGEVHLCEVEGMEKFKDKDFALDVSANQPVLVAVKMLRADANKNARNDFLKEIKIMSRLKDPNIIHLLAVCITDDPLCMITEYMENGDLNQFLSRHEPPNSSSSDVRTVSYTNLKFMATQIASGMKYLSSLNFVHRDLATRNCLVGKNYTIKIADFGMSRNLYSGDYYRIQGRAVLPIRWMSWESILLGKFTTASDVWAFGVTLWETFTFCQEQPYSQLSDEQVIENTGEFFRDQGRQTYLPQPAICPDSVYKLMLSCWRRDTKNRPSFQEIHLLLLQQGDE
Assay: biochemical
Type: binding
Details: DDR2; 1 µM; read-out: % of control at 1 µM
measured endpoint: remaining activity at 1 µM (%)
One number for each entry, in %.

Take a look at these entries with their results.
>>> observed_value("FC(F)c1nc2ccccc2n1-c1nc(N2CCOCC2)nc(N2CCOCC2)n1")
100
>>> observed_value("Nc1cc(C(F)(F)F)c(-c2cc(N3CCOCC3)nc(N3CCOCC3)n2)cn1")
96
>>> observed_value("Cn1c(=O)n(-c2ccc(C(C)(C)C#N)cc2)c2c3cc(-c4cnc5ccccc5c4)ccc3ncc21")
97

Here is another compound to look at.
// recorded remaining activity at 1 µM for COc1ncc(-c2ccc3nccc(-c4ccnnc4)c3c2)cc1NS(=O)(=O)c1ccc(F)cc1F : 100
